Tested on: Immortalised Mouse Dermal Fibroblasts (MDFs)
Test: Cellular assay: inhibition of TSI induced necroptosis, CellTitre-Glo viability
Details: Mus musculus, Fibroblast; MDF, 3 hours TSI cocktail, Table 27; read-out: Inhibition of TSI-induced necroptosis (IC50 cell-based assay) in MDF
parameter measured: IC50

[[record]]
compound = "C[C@H](Oc1cc(-c2nn(C)c3c(-c4cnn(C5CCN(C(=O)CC6CCN(c7cccc8c7C(=O)N(C7CCC(=O)NC7=O)C8=O)CC6)CC5)c4)cnc(N)c23)ccc1NS(=O)(=O)C(F)F)c1ccc(F)cc1 (some centres unmarked)"
parameter_measured = "IC50"
measured_value = "< 1 µM"

[[record]]
compound = "CN[C@@H](C)C(=O)N[C@H](C(=O)N1CC(NC(=O)CCCCCCCCn2cc(-c3cnc(N)c4c(-c5ccc(NS(=O)(=O)C(F)F)c(O[C@@H](C)c6ccc(F)cc6)c5)nn(C)c34)cn2)C[C@H]1C(=O)Nc1c(F)cccc1F)C(C)(C)C (some centres unmarked)"
parameter_measured = "IC50"
measured_value = "1 to 10 µM"

[[record]]
compound = "C[C@H](Oc1cc(-c2nn(C)c3c(-c4cnn(C5CCN(C(=O)C6CCN(c7cccc8c7C(=O)N(C7CCC(=O)NC7=O)C8=O)CC6)CC5)c4)cnc(N)c23)ccc1NS(=O)(=O)C(F)F)c1ccc(F)cc1 (some centres unmarked)"
parameter_measured = "IC50"
measured_value = "< 1 µM"

[[record]]
compound = "C[C@H](Oc1cc(-c2nn(C)c3c(-c4cnn(C5CCN(C(=O)Cc6cccc7c6C(=O)N(C6CCC(=O)NC6=O)C7=O)CC5)c4)cnc(N)c23)ccc1NS(=O)(=O)C(F)F)c1ccc(F)cc1 (some centres unmarked)"
parameter_measured = "IC50"
measured_value = "1 to 10 µM"

[[record]]
compound = "Cc1ncsc1-c1ccc(CNC(=O)[C@@H]2C[C@@H](O)CN2C(=O)[C@@H](NC(=O)CCCCCCn2cc(-c3cnc(N)c4c(-c5ccc(NS(=O)(=O)C(F)F)c(O[C@@H](C)c6ccc(F)cc6)c5)nn(C)c34)cn2)C(C)(C)C)cc1"
parameter_measured = "IC50"
measured_value = "< 1 µM"

[[record]]
compound = "C[C@H](Oc1cc(-c2nn(C)c3c(-c4cnn(C5CCN(CCCC6CCN(c7cccc8c7C(=O)N(C7CCC(=O)NC7=O)C8=O)CC6)CC5)c4)cnc(N)c23)ccc1NS(=O)(=O)C(F)F)c1ccc(F)cc1 (some centres unmarked)"
parameter_measured = "IC50"
measured_value = "< 1 µM"

[[record]]
compound = "C[C@H](Oc1cc(-c2nn(C)c3c(-c4cnn(C5CCN(C(=O)C6CC7(CCN(c8cccc9c8C(=O)N(C8CCC(=O)NC8=O)C9=O)CC7)C6)CC5)c4)cnc(N)c23)ccc1NS(=O)(=O)C(F)F)c1ccc(F)cc1 (some centres unmarked)"
parameter_measured = "IC50"
measured_value = "< 1 µM"

[[record]]
compound = "C[C@H](Oc1cc(-c2nn(C)c3c(-c4cnn(C5CCN(C(=O)[C@H]6C[C@H](Nc7cccc8c7C(=O)N(C7CCC(=O)NC7=O)C8=O)C6)C(C)(C)C5)c4)cnc(N)c23)ccc1NS(=O)(=O)C(F)F)c1ccc(F)cc1 (some centres unmarked)"
parameter_measured = "IC50"
measured_value = "1 to 10 µM"

[[record]]
compound = "C[C@H](Oc1cc(-c2nn(C)c3c(-c4cnn(C5CCN(C(=O)C6CCN(c7cccc8c7C(=O)N(C7CCC(=O)NC7=O)C8=O)C6)CC5)c4)cnc(N)c23)ccc1NS(=O)(=O)C(F)F)c1ccc(F)cc1 (some centres unmarked)"
parameter_measured = "IC50"
measured_value = "< 1 µM"

[[record]]
compound = "C[C@H](Oc1cc(-c2nn(C)c3c(-c4cnn(CCCCCCC(=O)Nc5cccc6c5CN(C5CCC(=O)NC5=O)C6=O)c4)cnc(N)c23)ccc1NS(=O)(=O)C(F)F)c1ccc(F)cc1 (some centres unmarked)"
parameter_measured = "IC50"
measured_value = "1 to 10 µM"

[[record]]
compound = "C[C@H](Oc1cc(-c2nn(C)c3c(-c4cnn(C5CCN(C(=O)N6CCN(c7cccc8c7C(=O)N(C7CCC(=O)NC7=O)C8=O)CC6)CC5)c4)cnc(N)c23)ccc1NS(=O)(=O)C(F)F)c1ccc(F)cc1 (some centres unmarked)"
parameter_measured = "IC50"
measured_value = "< 1 µM"

[[record]]
compound = "C[C@H](Oc1cc(-c2nn(C)c3c(-c4cnn(C5CCN(C(=O)CC6CN(c7cccc8c7C(=O)N(C7CCC(=O)NC7=O)C8=O)C6)CC5)c4)cnc(N)c23)ccc1NS(=O)(=O)C(F)F)c1ccc(F)cc1 (some centres unmarked)"
parameter_measured = "IC50"
measured_value = "1 to 10 µM"

[[record]]
compound = "C[C@H](Oc1cc(-c2nn(C)c3c(-c4cnn(C5CCN(C(=O)OCC6CCN(c7cccc8c7C(=O)N(C7CCC(=O)NC7=O)C8=O)CC6)CC5)c4)cnc(N)c23)ccc1NS(=O)(=O)C(F)F)c1ccc(F)cc1 (some centres unmarked)"
parameter_measured = "IC50"
measured_value = "< 1 µM"

[[record]]
compound = "C[C@H](Oc1cc(-c2nn(C)c3c(-c4cnn(C5CCN(C(=O)C6CC(N(C)c7cccc8c7C(=O)N(C7CCC(=O)NC7=O)C8=O)C6)CC5)c4)cnc(N)c23)ccc1NS(=O)(=O)C(F)F)c1ccc(F)cc1 (some centres unmarked)"
parameter_measured = "IC50"
measured_value = "< 1 µM"

[[record]]
compound = "C[C@H](Oc1cc(-c2nn(C)c3c(-c4cnn(C5CCN(CCCN6CCN(C(=O)COc7cccc8c7C(=O)N(C7CCC(=O)NC7=O)C8=O)CC6)CC5)c4)cnc(N)c23)ccc1NS(=O)(=O)C(F)F)c1ccc(F)cc1 (some centres unmarked)"
parameter_measured = "IC50"
measured_value = "1 to 10 µM"

[[record]]
compound = "C[C@H](Oc1cc(-c2nn(C)c3c(-c4cnn(C5CCN(CCC6CCN(c7cccc8c7C(=O)N(C7CCC(=O)NC7=O)C8=O)CC6)CC5)c4)cnc(N)c23)ccc1NS(=O)(=O)C(F)F)c1ccc(F)cc1 (some centres unmarked)"
parameter_measured = "IC50"
measured_value = "< 1 µM"

[[record]]
compound = "C[C@H](Oc1cc(-c2nn(C)c3c(-c4cnn(C5CCN(C(=O)[C@H]6C[C@H](N(C)c7ccc8c(c7)C(=O)N(C7CCC(=O)NC7=O)C8=O)C6)CC5)c4)cnc(N)c23)ccc1NS(=O)(=O)C(F)F)c1ccc(F)cc1 (some centres unmarked)"
parameter_measured = "IC50"
measured_value = "< 1 µM"

